Hello, the source for this data is patent US20170355705A1, in case you need it.

target.or.test.system: SIRT1 (Homo sapiens, UniProt Q96EB6)
Sequence (Q96EB6 1-747): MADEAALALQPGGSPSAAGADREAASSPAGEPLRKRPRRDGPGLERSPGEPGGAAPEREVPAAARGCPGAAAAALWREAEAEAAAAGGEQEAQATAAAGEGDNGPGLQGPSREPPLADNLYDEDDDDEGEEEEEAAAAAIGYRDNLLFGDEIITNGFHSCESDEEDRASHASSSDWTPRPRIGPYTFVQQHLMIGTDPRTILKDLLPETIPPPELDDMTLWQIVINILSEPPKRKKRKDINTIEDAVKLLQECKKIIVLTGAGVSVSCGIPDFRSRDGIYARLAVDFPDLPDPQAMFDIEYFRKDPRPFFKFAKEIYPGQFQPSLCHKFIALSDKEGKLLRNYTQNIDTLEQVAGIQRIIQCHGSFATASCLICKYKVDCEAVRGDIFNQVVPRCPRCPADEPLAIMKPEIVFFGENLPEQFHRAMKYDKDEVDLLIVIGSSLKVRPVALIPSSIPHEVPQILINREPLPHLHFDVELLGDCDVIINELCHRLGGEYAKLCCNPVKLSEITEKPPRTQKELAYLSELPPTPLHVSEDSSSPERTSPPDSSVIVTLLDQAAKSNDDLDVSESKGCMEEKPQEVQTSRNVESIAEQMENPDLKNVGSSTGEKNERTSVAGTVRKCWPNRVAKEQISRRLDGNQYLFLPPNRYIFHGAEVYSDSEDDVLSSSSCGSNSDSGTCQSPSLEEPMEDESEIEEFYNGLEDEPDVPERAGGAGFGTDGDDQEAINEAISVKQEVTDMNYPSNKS
assay.text: Trp mass spectrometry assay of SIRT1 activity (EC1.5, percent maximum activation)
Type: biochemical
protocol.conditions: Trp mass spectrometry assay; EC1.5 = concentration giving 150% activation of SIRT1
measurement.name: TRP Activity (EC1.5)

Illustrative cases are given below, each with its answer.
[
  {
    "molecule": "Cc1cc(-c2ccc3c(n2)N(C(=O)Nc2ccc4c(c2)OCCO4)[C@H]2CCN3C2)ccn1",
    "TRP Activity (EC1.5)": "B (EC1.5 1-25 μM)"
  },
  {
    "molecule": "Cl.O=C(Nc1cncc(OC[C@H](O)CO)n1)N1c2nc(-c3cccc(C(F)(F)F)c3)c(Cl)cc2N2CC[C@H]1C2",
    "TRP Activity (EC1.5)": "A (EC1.5<1 μM)"
  },
  {
    "molecule": "Cc1cc(-c2ccc3c(n2)N(C(=O)N2CCC(C)C2)[C@H]2CCN3C2)ccn1 (single isomer, unassigned)",
    "TRP Activity (EC1.5)": "C (EC1.5>25 μM)"
  },
  {
    "molecule": "O=C(Nc1ccnc(O[C@H]2CCOC2)n1)N1c2nc(-c3cccc(C(F)(F)F)c3)c(Cl)cc2N2CC[C@H]1C2",
    "TRP Activity (EC1.5)": "A (EC1.5<1 μM)"
  }
]

Lookup: Give the reported value of TRP Activity (EC1.5) for this record: Cl.O=C(Nc1ccnc(OC[C@H](O)CO)n1)N1c2nc(-c3cccc(C(F)(F)F)c3)c(Cl)cc2N2CC[C@H]1C2
Found: A (EC1.5<1 μM)

Lookup: Supply TRP Activity (EC1.5) value. Item: O=C(Nc1cnccn1)N1c2nc(-c3ccn[nH]3)ccc2N2CC[C@H]1C2
Found: B (EC1.5 1-25 μM)

Lookup: Dear colleague, please send me the reported TRP Activity (EC1.5) for O=C(Nc1ccnc(OC[C@@H](O)CO)n1)N1c2nc(-c3cccc(C(F)(F)F)c3)ccc2N2CC[C@H]1C2 when you can.
Found: A (EC1.5<1 μM)

Lookup: Using the record for Cc1cc(-c2nc3c(cc2Cl)N2CC[C@@H](C2)N3C(=O)Nc2cccc(OC[C@H](O)CO)n2)ccn1 , state its measured TRP Activity (EC1.5).
Found: B (EC1.5 1-25 μM)

Lookup: Give the reported value of TRP Activity (EC1.5) for this record: O=C(Nc1cc(OC[C@H](O)CO)ncn1)N1c2nc(-c3cccc(C(F)(F)F)c3)c(Cl)cc2N2CC[C@H]1C2
Found: B (EC1.5 1-25 μM)

Lookup: Look up and state reported TRP Activity (EC1.5) for O=C(Nc1cncc(OC[C@@H](O)CO)n1)N1c2nc(-c3cccc(C(F)(F)F)c3)c(Cl)cc2N2CC[C@H]1C2
Found: A (EC1.5<1 μM)
